- Assay name: Tmax in Wistar rat at 30 mg/kg, po by HPLC-MS/MS analysis
- Format: ADME, organism-based
- Run conditions: in vivo
Endpoint label: Tmax (h)

structure=CC[C@@H]1C(=O)N(C)c2cnc(Nc3ccc(C(=O)N[C@H]4CC[C@H](N5CCN(CC6CC6)CC5)CC4)cc3OC)nc2N1C(C)C endpoint_label=Tmax assay_result=6.7

* * *

- Assay name: Cmax in Wistar rat at 30 mg/kg, po by HPLC-MS/MS analysis
- Type: ADME, organism-based
- Run conditions: in vivo
Endpoint label: Cmax (nM)

structure=CC[C@@H]1C(=O)N(C)c2cnc(Nc3ccc(C(=O)N[C@H]4CC[C@H](N5CCN(CC6CC6)CC5)CC4)cc3OC)nc2N1C(C)C assay_result=2200
